- System: Vero
- ASSAY_INFO: Cytotoxicity against Chlorocebus aethiops (African green monkey) Vero cells after 24 hr by MTT assay
- Type: cell-based
- MEASUREMENT_PARAMETERS: chlorocebus sabaeus
METRIC: LD50 (uM/ml)
Only the number, expressed in uM/ml, is required.

// solved cases for LD50 follow
| MOLECULE | LD50 [uM/ml] |
| --- | --- |
| CC(=O)NC(c1c(O)ccc2ccccc12)c1c[nH]c2ccccc12 (configuration not stated) | 0.197 |
| CC(=O)NC(c1cn(-c2ccccc2)nc1-c1ccccc1)c1c(O)ccc2ccccc12 (configuration not stated) | 0.151 |
| NC(=O)NC(c1cn(-c2ccccc2)nc1-c1ccccc1)c1c(O)ccc2ccccc12 (configuration not stated) | 0.171 |

Input line: Please state recorded LD50 (tested on Vero) of CC(=O)N[C@H]1[C@H]([C@H](O)[C@H](O)CO)OC(C(=O)O)=C[C@@H]1NC(=N)N [ZANAMIVIR]
Output line: 0.232

Input line: Query LD50 on Vero for NC1=NC(c2c[nH]c3ccccc23)c2c(ccc3ccccc23)O1 (configuration not stated)
Output line: 0.125

Input line: # returns recorded LD50 (system: Vero) for NC1=NC(c2cn(-c3ccccc3)nc2-c2ccccc2)c2c(ccc3ccccc23)O1 (configuration not stated)
Output line: 0.083

Input line: Notebook entry, Vero assay: LD50 of c1ccc2c3c(ccc2c1)OC(c1c[nH]c2ccccc12)NC3c1c[nH]c2ccccc12 (configuration not stated) = ?
Output line: 0.122

Input line: Lab request: please report LD50 under test system Vero for O=C(NC(c1c(O)ccc2ccccc12)c1c[nH]c2ccccc12)c1ccccc1 (configuration not stated)
Output line: 0.307

Input line: Param readout= LD50; system= Vero; entry= O=C(NC(c1cn(-c2ccccc2)nc1-c1ccccc1)c1c(O)ccc2ccccc12)c1ccccc1 (configuration not stated) ; returns value.
Output line: 0.098

Input line: // lookup LD50 | system=Vero | key= c1ccc(-c2nn(-c3ccccc3)cc2C2NC(c3cn(-c4ccccc4)nc3-c3ccccc3)c3c(ccc4ccccc34)O2)cc1 (configuration not stated)
Output line: 0.089

Input line: Missing value: LD50, Vero, entry c1ccc(C2=NC(c3c[nH]c4ccccc34)c3c(ccc4ccccc34)O2)cc1 (configuration not stated) . Fill in?
Output line: 0.104

Input line: Give recorded LD50 with Vero for the following molecule: NC(=O)NC(c1c(O)ccc2ccccc12)c1c[nH]c2ccccc12 (configuration not stated)
Output line: 0.217

###

Below, each of the molecules is paired with its reported EC50 value.
- Tested on: unidentified influenza virus
- ASSAY_INFO: Antiviral activity against unidentified influenza virus (H5N1) infected African green monkey Vero cells assessed as protection against virus-induced cytopathic effect incubated for 3 days measured on day 4 post infection by MTT assay
- Assay type: functional, organism-based
Field: numeric (uM/ml). Do not append units.

| MOLECULE | UNITS_LABEL | EC50 |
| --- | --- | --- |
| NC(=O)NC(c1c(O)ccc2ccccc12)c1c[nH]c2ccccc12 (stereo not drawn) | uM/ml | 0.031 |

Input line: Using the record for NC1=NC(c2c[nH]c3ccccc23)c2c(ccc3ccccc23)O1 (stereo not drawn) , report its EC50.
Output line: 0.061

Input line: I am curious: what EC50 value has been reported for NC(=O)NC(c1cn(-c2ccccc2)nc1-c1ccccc1)c1c(O)ccc2ccccc12 (stereo not drawn) ?
Output line: 0.025

###

Collected selectivity ratio values appear next to each entry.
- ASSAY_INFO: Therapeutic index, ratio of LD50 for african green monkey Vero cells to EC50 for Avian influenza virus H5N1 infected in african green monkey Vero cells
- Assay type: cell-based
- MEASUREMENT_PARAMETERS: read-out: Ratio LD50/EC50
Answer using only a numeral; do not append any unit.

Look over these answered cases.
| COMPOUND | ASSAY_RESULT |
| --- | --- |
| O=C(NC(c1c(O)ccc2ccccc12)c1c[nH]c2ccccc12)c1ccccc1 (configuration not stated) | 16.2 |
| c1ccc2c3c(ccc2c1)OC(c1c[nH]c2ccccc12)NC3c1c[nH]c2ccccc12 (configuration not stated) | 0.726 |
| CC(=O)NC(c1cn(-c2ccccc2)nc1-c1ccccc1)c1c(O)ccc2ccccc12 (configuration not stated) | 7.19 |

Now for the compound whose selectivity ratio we want.
Input line: Please look up its selectivity ratio: CC(=O)N[C@H]1[C@H]([C@H](O)[C@H](O)CO)OC(C(=O)O)=C[C@@H]1NC(=N)N [ZANAMIVIR]
Output line: 15.5

###

Reported EC50 values for a set of molecules
- Tested on: unidentified influenza virus
- ASSAY_INFO: Antiviral activity against unidentified influenza virus (H5N1) infected African green monkey Vero cells assessed as protection against virus-induced cytopathic effect incubated for 3 days measured on day 4 post infection by MTT assay
- Type: functional, organism-based

// worked examples, EC50 included
| MOLECULE | ASSAY_RESULT |
| --- | --- |
| NC1=NC(c2cn(-c3ccccc3)nc2-c2ccccc2)c2c(ccc3ccccc23)O1 (centres undefined) | 0.0148 uM/ml |
| O=C(NC(c1cn(-c2ccccc2)nc1-c1ccccc1)c1c(O)ccc2ccccc12)c1ccccc1 (centres undefined) | 0.018 uM/ml |
| CC(=O)N[C@H]1[C@H]([C@H](O)[C@H](O)CO)OC(C(=O)O)=C[C@@H]1NC(=N)N | 0.015 uM/ml |
| CC(=O)NC(c1c(O)ccc2ccccc12)c1c[nH]c2ccccc12 (centres undefined) | 0.022 uM/ml |
| O=C(NC(c1c(O)ccc2ccccc12)c1c[nH]c2ccccc12)c1ccccc1 (centres undefined) | 0.019 uM/ml |

Input line: What value of measured EC50 is listed for c1ccc(-c2nn(-c3ccccc3)cc2C2NC(c3cn(-c4ccccc4)nc3-c3ccccc3)c3c(ccc4ccccc34)O2)cc1 (centres undefined) ?
Output line: 0.045 uM/ml

Input line: What measured EC50 goes with c1ccc(C2=NC(c3c[nH]c4ccccc34)c3c(ccc4ccccc34)O2)cc1 (centres undefined) ?
Output line: 0.049 uM/ml

Input line: What value of measured EC50 is listed for c1ccc2c3c(ccc2c1)OC(c1c[nH]c2ccccc12)NC3c1c[nH]c2ccccc12 (centres undefined) ?
Output line: 0.168 uM/ml

Input line: Fill blank: measured EC50 of the molecule CC(=O)NC(c1cn(-c2ccccc2)nc1-c1ccccc1)c1c(O)ccc2ccccc12 (centres undefined) is ____.
Output line: 0.021 uM/ml

###

- ASSAY_INFO: Therapeutic index, ratio of LD50 for african green monkey Vero cells to EC50 for Avian influenza virus H5N1 infected in african green monkey Vero cells
- Format: cell-based
- MEASUREMENT_PARAMETERS: read-out: Ratio LD50/EC50
TRUE if selectivity ratio is below 7. FALSE if not; exact matches included in FALSE.

// known answers, use as guide
| COMPOUND | CLASS_ASSIGNMENT |
| --- | --- |
| NC1=NC(c2c[nH]c3ccccc23)c2c(ccc3ccccc23)O1 (stereo not drawn) | TRUE |
| NC1=NC(c2cn(-c3ccccc3)nc2-c2ccccc2)c2c(ccc3ccccc23)O1 (stereo not drawn) | TRUE |

Input line: selectivity ratio strictly < 7 for this compound? c1ccc(C2=NC(c3c[nH]c4ccccc34)c3c(ccc4ccccc34)O2)cc1 (stereo not drawn)
Output line: TRUE

Input line: Consider c1ccc(-c2nn(-c3ccccc3)cc2C2NC(c3cn(-c4ccccc4)nc3-c3ccccc3)c3c(ccc4ccccc34)O2)cc1 (stereo not drawn) . Does its selectivity ratio lie strictly below 7?
Output line: TRUE

Input line: Item CC(=O)NC(c1c(O)ccc2ccccc12)c1c[nH]c2ccccc12 (stereo not drawn) : selectivity ratio beneath 7, strictly?
Output line: FALSE

Input line: is_below(selectivity ratio, 7) for O=C(NC(c1cn(-c2ccccc2)nc1-c1ccccc1)c1c(O)ccc2ccccc12)c1ccccc1 (stereo not drawn) ?
Output line: TRUE

Data provenance: ChEMBL document CHEMBL3046280
